Parameter inhibition: see the listing below.
assay: T. cruzi intracellular proliferation inhibitors, primary screen, cell-based, beta-gal Tulahuen parasites, NIH3T3 host, luminescence (AID 624255); conditions: T. cruzi beta-gal in NIH3T3, GalScreen luminescence, 90 h; at 8.34 µM; stronger effect = higher value
Screen size: about 77,000 compounds; about 4,600 (6%) were called active. Roughly 1% stayed inconclusive and do not appear here. The entries come from a sample that favours actives as a whole.
Result Type: inhibition (%)

{"Structure Smiles String": "CCC(=O)Nc1ccc2c(c1)C(=O)N(C)[C@@H]1CC[C@@H](CC(=O)Nc3cccc(OC)c3)O[C@@H]1CO2", "Result Type": "inhibition", "Unit String": "%", "Value Measured": -12.2}
{"Structure Smiles String": "COC(=O)[C@@H]1[C@@H](CO)[C@@H]2Cn3c(ccc(-c4ccccc4)c3=O)[C@@H]2N1C(=O)C1CC1", "Result Type": "inhibition", "Unit String": "%", "Value Measured": 59.9}
{"Structure Smiles String": "CC(C)NC(=O)N1C[C@H]2[C@@H](c3ccccc31)[C@H](CO)N2C(=O)c1ccccc1F", "Result Type": "inhibition", "Unit String": "%", "Value Measured": -21.6}
{"Structure Smiles String": "CC(=O)NC[C@H]1[C@H](c2ccc(C3=CCCCC3)cc2)[C@@H](CO)N1C(=O)NC(C)C", "Result Type": "inhibition", "Unit String": "%", "Value Measured": 21.7}

====

Listed next: entries and their corresponding inhibition.
assay: T. cruzi intracellular proliferation inhibitors, primary screen, cell-based, beta-gal Tulahuen parasites, NIH3T3 host, luminescence (AID 624255); conditions: T. cruzi beta-gal in NIH3T3, GalScreen luminescence, 90 h; at 8.34 µM; stronger effect = higher value
Hit rate of the full screen: of about 77,000 compounds, about 4,600 (6%) were called active. About 1% were inconclusive and are not listed. The sample as a whole holds a higher share of actives than the screen did.
Result Type: inhibition (%)

{"Structure Smiles String": "CNC[C@H]1OCCCC[C@@H](C)Oc2ccc(NS(C)(=O)=O)cc2C(=O)N([C@@H](C)CO)C[C@H]1C", "Result Type": "inhibition", "Value Measured": 61.9}
{"Structure Smiles String": "C[C@@H]1CN([C@H](C)CO)C(=O)c2cccc(NS(=O)(=O)c3cn(C)cn3)c2O[C@H]1CN(C)CC1CC1", "Result Type": "inhibition", "Value Measured": 27.4}
{"Structure Smiles String": "O=C(NC[C@@H]1[C@@H](c2ccccc2)[C@@H](CO)N1Cc1ccccn1)C1CCC1", "Result Type": "inhibition", "Value Measured": 31.9}
{"Structure Smiles String": "C[C@@H]1CN([C@H](C)CO)C(=O)c2cc(NS(C)(=O)=O)ccc2O[C@@H](C)CCCCO[C@H]1CN(C)S(=O)(=O)c1cn(C)cn1", "Result Type": "inhibition", "Value Measured": 104}

====

assay: T. cruzi intracellular proliferation inhibitors, primary screen, cell-based, beta-gal Tulahuen parasites, NIH3T3 host, luminescence (AID 624255); conditions: T. cruzi beta-gal in NIH3T3, GalScreen luminescence, 90 h; at 8.34 µM
The campaign covered roughly 77,000 compounds. About 4,600 (6%) were called active. Inconclusive results (about 1%) are left out.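 Rule for the calls: active = mean inhibition above about 93%, with at least 55% of replicates each passing it (limit read from the data, passing the limit was not always enough); inconclusive = only one of those two conditions holds; inactive = neither condition holds.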 The full list was thinned out, with actives kept by preference.
Labels: label 1 (active), label 0 (inactive)

{"Compound": "C[C@H](CO)N1C[C@H](C)[C@@H](CN(C)C(=O)C2CC2)Oc2ncc(-c3cccc(C#N)c3)cc2C1=O", "Assigned Label": "label 0"}
{"Compound": "C[C@H]1CN([C@@H](C)CO)C(=O)c2cc(C#Cc3ccc(F)cc3)cnc2O[C@@H]1CN(C)C(=O)Nc1ccc(F)cc1", "Assigned Label": "label 0"}
{"Compound": "CC=Cc1ccc2n(c1=O)C[C@@H]1[C@@H](CO)[C@H](C(=O)NCC(F)(F)F)N(CCc3ccccc3)[C@H]21 (mixture of isomers)", "Assigned Label": "label 0"}
{"Compound": "O=C(C[C@@H]1C=C[C@H](NC(=O)Nc2ccc3c(c2)OCO3)[C@H](CO)O1)NCc1ccccc1", "Assigned Label": "label 0"}
{"Compound": "C[C@H](CO)N1C[C@H](C)[C@H](CN(C)C(=O)C2CCCCC2)Oc2ncc(C#Cc3cccc(F)c3)cc2C1=O", "Assigned Label": "label 1"}
{"Compound": "C[C@H](CO)N1C[C@H](C)[C@H](CN(C)C(=O)C2CC2)Oc2ncc(C#Cc3ccccc3)cc2C1=O", "Assigned Label": "label 0"}
{"Compound": "COCC#Cc1cnc2c(c1)C(=O)N([C@H](C)CO)C[C@@H](C)[C@@H](CN(C)C(=O)Nc1cccc(F)c1)O2", "Assigned Label": "label 0"}
